The origin of these recorded values is patent US11466044B2.

- Test system: mitochondrial ribosome (human chimeric)
- Format: biochemical
- settings: mitochondrial; Table 3 (Example 2); read-out: IC50 Mit
measure: pIC50
Value format note: pIC50 is -log10 of concentration (mol/L); just state the number.

What pIC50 appears in the records for this compound with mitochondrial ribosome (human chimeric)? NC[C@@H]1O[C@H](O[C@H]2[C@@H](O)[C@H](O[C@@H]3[C@@H](O)[C@H](N)C[C@H](N)[C@H]3O[C@H]3O[C@H](CN)[C@@H](O)[C@H](O)[C@H]3N)O[C@@H]2CO)[C@H](N)[C@@H](O)[C@@H]1O [neomycin, Neomycin B, reference compound]
5.37

What pIC50 appears in the records for this compound with mitochondrial ribosome (human chimeric)? CC1CC(N)C2O[C@H](O[C@@H]3C(N)C[C@@H](N)C(O)[C@H]3O[C@@H]3O[C@H](CO)[C@H](O[C@H]4O[C@@H](CN)[C@@H](O)C(O)C4N)C3O)C(N)[C@@H](O)[C@@H]2O1 (stereo partly shown) [Compound 139]
5.64

What pIC50 appears in the records for this compound with mitochondrial ribosome (human chimeric)? CC1CC(N)C2O[C@H](O[C@@H]3C(N)C[C@@H](N)C(O)[C@H]3O[C@@H]3O[C@H](CO)[C@H](O[C@H]4O[C@@H](CN)[C@@H](O)C(O)C4N)C3O)C(N)[C@@H](O)[C@@H]2O1 (stereo partly shown) [Compound 150]
5.39

What pIC50 appears in the records for this compound with mitochondrial ribosome (human chimeric)? NCC1O[C@H](O[C@@H]2C(O)[C@H](O[C@@H]3C(O)[C@H](N)CC(N)[C@H]3O[C@H]3OC4C(O)CO[C@H]4[C@H](O)C3N)O[C@@H]2CO)C(N)[C@H](O)[C@@H]1O (stereo partly shown)
6.70

* * *

- Test system: E coli carrying specific resistance determinants
- assay notes: MIC by broth microdilution, E coli carrying specific resistance determinants
- Format: cell-based
- settings: Escherichia coli, read-out: MIC pH423 E. coli APH(3′)-VI
Please respond with reported MIC for every item in the list.

Request the reported MIC associated with NCC1OC(OC2C(N)CC(N)C(O)C2OC2OC(CNC=O)C(O)C2O)C(N)C(O)C1O (centres unmarked) [Compound 130]
> 64 µg/mL

Request the reported MIC associated with CC(=O)NC[C@H]1O[C@@H](O[C@@H]2C(O)[C@H](N)CC(N)[C@H]2O[C@H]2OC(CO)[C@@H](O)[C@H](O)C2N)C(O)[C@H]1O[C@H]1O[C@@H](CN)[C@@H](O)C(O)C1N (some centres unmarked) [Compound 165]
> 64 µg/mL

Request the reported MIC associated with NCC1OC(OC2C(CNC=O)OC(OC3C(O)C(N)CC(N)C3OC3OC(CO)C(O)CC3N)C2O)C(N)C(O)C1O (centres unmarked) [Compound 153, 3′,5″-Dideoxy-5″-formamido-paromomycin]
2 to 4 µg/mL

Request the reported MIC associated with NC[C@H]1O[C@H](O[C@H]2[C@H](O[C@@H]3O[C@H](CO)[C@@H](O)[C@H]3O)[C@@H](O)[C@H](N)C[C@@H]2N)[C@H](N)[C@@H](O)[C@@H]1O [Ribostamycin, ribostamycin, reference compound]
> 128 µg/mL

Request the reported MIC associated with CCC[C@@H]1C(CO)O[C@H](O[C@@H]2C(N)C[C@@H](N)C(O)[C@H]2O[C@@H]2O[C@H](CO)[C@H](O[C@H]3OC(CN)[C@@H](O)C(O)C3N)C2O)[C@@H](N)C1O (some centres unmarked) [Compound 079]
1 µg/mL

* * *

Please respond with reported Selectivity for Binding to the Bacterial Ribosome over the Cytosolic Ribosome for every item in the list.
- System: cytosolic ribosome (human chimeric)
- Format: biochemical
- settings: Table 3 (Example 3)
Where a name gives a salt, the structure may show the parent alone.
Note: the reply should be a number with no unit written.

What Selectivity for Binding to the Bacterial Ribosome over the Cytosolic Ribosome appears in the records for this compound with cytosolic ribosome (human chimeric)? CNC1C(OC2C(N)CC(N)C(O)C2OC2OC(CO)C(OC3OC(CN)C(O)C(O)C3N)C2O)OC(CN)C(O)C1O (stereo not shown) [Compound 171, 2′-N-Methyl-neomycin acetate salt]
4000

What Selectivity for Binding to the Bacterial Ribosome over the Cytosolic Ribosome appears in the records for this compound with cytosolic ribosome (human chimeric)? NCC1OC(OC2C(CO)OC(OC3C(O)C(N)CC(N)C3OC3OC(CN)C(O)C(O)C3O)C2O)C(N)C(O)C1O (stereo not shown)
3667

What Selectivity for Binding to the Bacterial Ribosome over the Cytosolic Ribosome appears in the records for this compound with cytosolic ribosome (human chimeric)? CC(=O)O.NCC(=O)NC1C(OC2C(N)CC(N)C(O)C2OC2OC(CO)C(OC3OC(CN)C(O)C(O)C3N)C2O)OC(CN)C(O)C1O (stereo not shown)
155

What Selectivity for Binding to the Bacterial Ribosome over the Cytosolic Ribosome appears in the records for this compound with cytosolic ribosome (human chimeric)? CNC1C(OC2C(N)CC(N)C(O)C2OC2OC(CO)C(OC3OC(CN)C(O)C(O)C3N)C2O)OC(CO)C(O)C1O (stereo not shown) [Compound 115, 2′-N-Methyl-paromomycin acetate salt]
1264

* * *

- Tested on: E coli wild type
- assay notes: MIC by broth microdilution, wild type E coli
- Assay type: cell-based
- settings: engineered strain pH430 WT; Table 2 (Example 4)
measure: MIC pH430 E. coli WT (μg/ml)
Could you give me the number in μg/ml? Just the number is fine.

Request the reported MIC pH430 E. coli WT associated with NC[C@@H]1O[C@H](O[C@H]2[C@@H](O)[C@H](O[C@@H]3[C@@H](O)[C@H](N)C[C@H](N)[C@H]3O[C@H]3O[C@H](CN)[C@@H](O)[C@H](O)[C@H]3N)O[C@@H]2CO)[C@H](N)[C@@H](O)[C@@H]1O [neomycin, Neomycin B, reference compound]
1

Request the reported MIC pH430 E. coli WT associated with CCC[C@@H]1C(CO)O[C@H](O[C@@H]2C(N)C[C@@H](N)C(O)[C@H]2O[C@@H]2O[C@H](CO)[C@H](O[C@H]3C[C@@H](CN)[C@@H](O)C(O)C3N)C2O)[C@@H](N)C1O (some centres unmarked) [Compound 116]
0.5

Request the reported MIC pH430 E. coli WT associated with NC[C@@H]1O[C@H](O[C@H]2[C@@H](O)[C@H](O[C@@H]3[C@@H](O)[C@H](N)C[C@H](N)[C@H]3O[C@H]3O[C@H](CN)[C@@H](O)C[C@H]3N)O[C@@H]2CO)[C@H](N)[C@@H](O)[C@@H]1O [Compound 140]
1

Request the reported MIC pH430 E. coli WT associated with NC[C@@H]1O[C@H](O[C@H]2[C@@H](O)[C@H](O[C@@H]3[C@@H](O)[C@H](N)C[C@H](N)[C@H]3O[C@H]3O[C@H](CO)[C@@H](O)C[C@H]3N)O[C@@H]2CO)[C@H](N)[C@@H](O)[C@@H]1O [Lividomycin B, lividomycin B, reference compound]
2

* * *

- Test system: E coli wild type
- assay notes: MIC by broth microdilution, wild type E coli
- Assay type: cell-based
- settings: BM13 (AG06) wt; Table 2A (Example 2)
measure: MIC50 E coli BM13 (AG06) wt (µg/mL)
Could you give me the number in µg/mL? Just the number is fine.

Request the reported MIC50 E coli BM13 (AG06) wt associated with CC1CC(O)C2O[C@H](O[C@@H]3C(N)C[C@@H](N)C(O)[C@H]3O[C@@H]3O[C@H](CO)[C@H](O[C@H]4O[C@@H](CN)[C@@H](O)C(O)C4N)C3O)C(N)[C@@H](O)[C@@H]2O1 (stereo partly shown) [Compound 125]
2

Request the reported MIC50 E coli BM13 (AG06) wt associated with CCCC(O)C1OC(OC2C(N)CC(N)C(O)C2OC2OC(CO)C(OC3OC(CN)C(O)C(O)C3N)C2O)C(N)C(O)C1O (stereo not shown) [Compound 142]
1

Request the reported MIC50 E coli BM13 (AG06) wt associated with NC[C@@H]1O[C@H](O[C@H]2[C@@H](O)[C@H](O[C@@H]3[C@@H](O)[C@H](N)C[C@H](N)[C@H]3O[C@H]3O[C@H](CN)[C@@H](O)[C@H](O)[C@H]3N)O[C@@H]2CO)[C@H](N)[C@@H](O)[C@@H]1O [neomycin, Neomycin B, reference compound]
1

Request the reported MIC50 E coli BM13 (AG06) wt associated with C[C@@H](O)[C@H]1O[C@H](O[C@H]2[C@H](O[C@@H]3O[C@H](CO)[C@@H](O[C@H]4O[C@@H](CN)[C@@H](O)[C@H](O)[C@H]4N)[C@H]3O)[C@@H](O)[C@H](N)C[C@@H]2N)[C@H](N)[C@@H](O)[C@@H]1O [Compound 155, 6′(R)-6′-C-Methylparomomycin]
2

* * *

- Tested on: MRSA
- assay notes: MIC by broth microdilution, MRSA isolates
- Type: cell-based
- settings: Staphylococcus aureus, MRSA; clinical isolate AG038; Table 1 (Example 3); read-out: MIC MRSA AG038
Where a name gives a salt, the structure may show the parent alone.
measure: MIC (µg/mL)
Could you give me the number in µg/mL? Just the number is fine.

Request the reported MIC associated with CCNC1C(OC2C(N)CC(N)C(O)C2OC2OC(CO)C(OC3OC(CN)C(O)C(O)C3N)C2O)OC(CN)C(O)C1O (stereo not drawn) [Compound 172, 2′-N-Ethyl-neomycin acetate salt]
0.5

Request the reported MIC associated with NCC1OC(OC2C(N)CC(N)C(O)C2OC2OC(CO)C(OC3OC(CN)C(O)C(O)C3N)C2O)CC(O)C1O (stereo not drawn) [Compound 173, 2′-Deamino-neomycin acetate salt]
1

Request the reported MIC associated with NCC1OC(OC2C(CO)OC(OC3C(O)C(N)CC(N)C3OC3OC(CN)C(O)C(O)C3O)C2O)C(N)C(O)C1O (stereo not drawn)
2

Request the reported MIC associated with CCNC1C(OC2C(N)CC(N)C(O)C2OC2OC(CO)C(OC3OC(CN)C(O)C(O)C3N)C2O)OC(CO)C(O)C1O (stereo not drawn)
8
